Just for reference, PubChem BioAssay (NCI) is where these values come from.

TEST: NCI Yeast Anticancer Drug Screen. Data for the sgs1 strain (AID 173);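 also: 0% = growth of vehicle-only control cultures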
CONDITION DETAILS: S. cerevisiae sgs1 mutant, at 33.0 µM, hits give high values
The panel holds about 79,000 compounds, 15% with a hit somewhere; the sample as a whole holds those more often.
// reported growth inhibition for each item listed
# output: bare number, implied unit %

COMPOUND: COCCOC(=O)CCn1cc(F)c(=O)[nH]c1=O
growth inhibition, %: 76

COMPOUND: O=C1c2ccccc2C(=O)c2c(NC3CCCCC3)ccc(Nc3ccc(S(=O)(=O)O)cc3)c21
growth inhibition, %: 79

COMPOUND: N#CSc1ccc(S(N)(=O)=O)cc1
growth inhibition, %: 9

COMPOUND: C=C1CC(Cn2cc(Br)c(=O)[nH]c2=O)(c2ccc(-c3ccccc3)cc2)OC1=O (stereo unspecified)
growth inhibition, %: 57

COMPOUND: S=C(Nc1ccc(Cl)c(Cl)c1)SCc1ccc2c(c1)OCO2
growth inhibition, %: 99

Now examine the next entry.
# growth inhibition of CCC#CCCCOC(=O)c1cc([N+](=O)[O-])cc([N+](=O)[O-])c1 = 98

====

// reported growth inhibition for each item listed
TEST: NCI Yeast Anticancer Drug Screen. Data for the wt2 strain (AID 169);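 also: 0% = growth of vehicle-treated yeast cultures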
CONDITION DETAILS: S. cerevisiae wt2 strain growth inhibition; at 11.0 µM; hits give high values
Compounds without any hit were thinned out: in the full panel of roughly 79,000, 15% have a hit.
# output: bare number, implied unit %

COMPOUND: S=C(N/N=C/c1ccccn1)Nc1ccc(Cl)cc1
EXPERIMENTAL VALUE: -4
//
COMPOUND: Cc1c(C2=C(Br)C(=O)N(C)C2=O)c(=O)n(C)c(=O)n1C
EXPERIMENTAL VALUE: 11
//
COMPOUND: CC(C)(C)c1nc2c(o1)C(=O)c1ccccc1C2=O
EXPERIMENTAL VALUE: 32
//
COMPOUND: [O-][n+]1c2ccc(O)cc2nc2ccc(Br)cc21
EXPERIMENTAL VALUE: 25
//
COMPOUND: C(=C\c1ccccc1)/COc1ccccc1C(N1CCOCC1)n1nc2ccccc2n1 (stereo not drawn)
EXPERIMENTAL VALUE: 25
//
COMPOUND: Nc1ccn(C2OC(CO)C3[O][Sn]([c]4ccccc4)([c]4ccccc4)[O]C32)c(=O)n1 (stereo not drawn)
EXPERIMENTAL VALUE: 5
//
COMPOUND: Cc1c(C(=O)C(=O)c2ccccc2)c(C)c(C(=O)C(=O)c2ccccc2)c(C)c1C(=O)C(=O)c1ccccc1
EXPERIMENTAL VALUE: -4
//
COMPOUND: O=C(NNc1ccnc2cc(Cl)ccc12)/C(=C\c1ccccc1Cl)NC(=O)c1ccccc1
EXPERIMENTAL VALUE: 45

# growth inhibition of CCCCCCCCCCC1CCC(=O)O1 (stereo not drawn) = 0

# growth inhibition of O=C(Nc1ccccc1)OCCc1ccc(Cl)c(Cl)c1 = 5

# growth inhibition of O=[N+]([O-])c1ccc(=S)[nH]c1 = 2

# growth inhibition of OC1(c2ccccc2)CSC2=Nc3ccccc3C3CCN1N23 (stereo not drawn) = -34

# growth inhibition of NC(N)=N/N=C\c1c2ccccc2cc2ccccc12 = -59

# growth inhibition of C[Si](C)(C)CNC(=O)OCc1ccccc1 = -1

# growth inhibition of O=C1CSC(/C=C/c2ccccc2)N1c1ccc(-c2ccc(-n3c(-c4ccccc4)nc4ccccc4c3=O)cc2)cc1 (stereo not drawn) = -4

# growth inhibition of Oc1ccc(NCn2c(=S)sc3ccccc32)cc1 = -10

# growth inhibition of O=C(O)C1CCCCC1c1c2ccc(=O)c(O)c-2oc2c(O)c(O)ccc12 (stereo not drawn) = -25

# growth inhibition of COCCOC(=O)CCn1cc(F)c(=O)[nH]c1=O = 14

# growth inhibition of NC1=NS(=O)(=O)N=C(N)C1=Cc1ccc([N+](=O)[O-])o1 = -22

# growth inhibition of CC(C)=CC(=O)O[C@@H]1CC(C)(C)CC2C3=CCC4[C@]56CC[C@](O)(OC5)C(C)(C)C6CC[C@@]4(C)C3(C)CC[C@]21C(=O)O (stereo partly drawn) = 61

# growth inhibition of CN(C)c1ccc(Sc2ccc3nc(N)nc(N)c3c2)cc1 = 9

# growth inhibition of O=C(COC(=O)c1cc(O)c(O)c(O)c1)c1ccc(-c2ccccc2)cc1 = -4

# growth inhibition of N#CSc1ccc(S(N)(=O)=O)cc1 = -32

# growth inhibition of COC(=O)c1ccc([N+](=O)[O-])c(O)c1 = 4

# growth inhibition of CC(=O)Nc1ccc(/C=C(\C#N)c2ccc(C)cc2)cc1 = 6

# growth inhibition of CC1CCN(CCC(=O)c2ccc(Cl)cc2)CC1 = 18

# growth inhibition of C#CCCCc1ccccc1 = -54

# growth inhibition of c1ccc2c(c1)sc1cc3ccncc3cc12 = -3
